molecular target: Recombinant human his-tagged IGF 1R extracellular domain protein (human) (UniProt P08069); assay: SPR, captured IgG, IGF-1R ECD-his analyte, dissociation pH 6
readoutType: Kd (nM)
One number for each entry, in nM.

// known answers, use as guide
>  <binder>
VRDN-02527 (antibody, V domains shown) VH: EVQLVQSGGGLVKPGGSLRLSCAASGFTFSSFAMHWVRQAPGKGLEWISVIDTRGATYYADSVKGRFTISRDNAKNSLYLQMNSLRAEDTAVYYCARLGNFYYGMDHWGQGTTVTVSS VL: EIVLTQSPGTLSVSPGERATLSCRASQSIGSSLHWYQQKPGQAPRLLIKYASQSLSGIPDRFSGSGSGTDFTLTISRLEPEDFAVYYCHQSSRLPHTFGQGTKVEIK

>  <Kd, nM>
0.0258

$$$$
>  <binder>
VRDN-02562 (antibody, V domains shown) VH: EVQLVQSGGGLVKPGGSLRLSCAASGFTFSSFAMHWVRQAPGKGLEWISVIHTRGATYYADSVKGRFTISRDNAKNSLYLQMNSLRAEDTAVYYCHRLGNFYYGMDVWGQGTTVTVSS VL: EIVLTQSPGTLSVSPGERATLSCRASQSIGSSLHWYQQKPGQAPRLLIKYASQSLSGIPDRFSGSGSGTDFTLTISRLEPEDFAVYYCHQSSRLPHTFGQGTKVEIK

>  <Kd, nM>
1.34

$$$$
>  <binder>
VRDN-02521 (antibody, V domains shown) VH: EVQLVQSGGGLVKPGGSLRLSCAASGFTFSSFAMHWVRQAPGKGLEWISVIDTRGATYYADSVKGRFTISRDNAKNSLYLQMNSLRAEDTAVYYCARLGNHYYGMDVWGQGTTVTVSS VL: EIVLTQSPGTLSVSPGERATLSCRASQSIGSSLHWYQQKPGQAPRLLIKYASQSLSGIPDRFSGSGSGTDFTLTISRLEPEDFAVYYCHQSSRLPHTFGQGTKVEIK

>  <Kd, nM>
0.05

$$$$
>  <binder>
VRDN-02553 (antibody, V domains shown) VH: EVQLVQSGGGLVKPGGSLRLSCAASGFTFSSFHMHWVRQAPGKGLEWISVIDTRGATYYADSVKGRFTISRDNAKNSLYLQMNSLRAEDTAVYYCARLGNFYYGMDVWGQGTTVTVSS VL: EIVLTQSPGTLSVSPGERATLSCRASQSIGSSLHWYQQKPGQAPRLLIKHASQSLSGIPDRFSGSGSGTDFTLTISRLEPEDFAVYYCHQSSRLPHTFGQGTKVEIK

>  <Kd, nM>
1.56

$$$$

Now consider a different binder.
According to the records, this binder VRDN-02565 (antibody, V domains shown) VH: EVQLVQSGGGLVKPGGSLRLSCAASGFTFSSFAMHWVRQAPGKGLEWISVIDTRGATYYADSVKGRFTISRDNAKNSLYLQMNSLRAEDTAVYYCHRLGNFYYHMDVWGQGTTVTVSS VL: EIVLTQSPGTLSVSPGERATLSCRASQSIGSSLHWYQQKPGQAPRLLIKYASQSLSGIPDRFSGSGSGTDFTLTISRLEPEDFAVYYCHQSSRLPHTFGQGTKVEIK displays Kd of 5.77
